test system: Pseudomonas aeruginosa; assay: Antibacterial activity against Pseudomonas aeruginosa assessed as zone of inhibition incubated for 24 hrs by agar diffusion method; type: functional; note: test concentration or dose not given here
property_measured: inhibition zone (IZ)
Just the number plus its unit, please.

[
  {
    "chem_smiles": "COc1cc(C(=O)N/N=C/c2ccnc3ccccc23)cc(OC)c1OC",
    "inhibition zone (IZ)": "17 mm"
  },
  {
    "chem_smiles": "COc1cc(C(=O)N/N=C/c2cc3ccccc3[nH]2)cc(OC)c1OC",
    "inhibition zone (IZ)": "17 mm"
  },
  {
    "chem_smiles": "COc1cc(C(=O)N/N=C/c2c(CO)cnc(C)c2O)cc(OC)c1OC",
    "inhibition zone (IZ)": "17 mm"
  },
  {
    "chem_smiles": "COc1cc(C(=O)NN=Cc2nc(-c3ccccc3)c[nH]2)cc(OC)c1OC",
    "inhibition zone (IZ)": "17 mm"
  }
]

For each of the compounds below, state inhibition zone (IZ).
1. CC1(C)S[C@@H]2[C@H](NC(=O)[C@H](N)c3ccccc3)C(=O)N2[C@H]1C(=O)O
2. COc1cc(C(=O)N/N=C/c2ccc(-c3ccccn3)cc2)cc(OC)c1OC

1: 15 mm; 2: 17 mm

* * *

Record form. Attribute: pIC50. Fill in for each entry.
assay: Inhibition of recombinant HIV-1 integrase using 32-P labeled dBY-1 as substrate assessed as disintegration of substrate incubated for 1 hrs; parameters: species or system Human immunodeficiency virus 1
Numbers only, as −log10 of the molar value.

[
  {
    "chem_smiles": "Cc1nnc(C(=O)NC(C)(C)c2nc(C(=O)NCc3ccc(F)cc3)c(O)c(=O)n2C)o1",
    "pIC50": 4.45
  }
]

Alright, here's another compound for you.
Lab note: measured pIC50 of `O=C(/C=C/c1ccc(O)c(O)c1)O[C@@H]1C[C@](O)(C(=O)O)C[C@@H](OC(=O)/C=C/c2ccc(O)c(O)c2)[C@H]1O` was 5.26
